TARGET SYSTEM: Full length Human HDAC8 (Homo sapiens, UniProt Q9BY41)
Construct: Full length Human HDAC8; HIS (N); host or cells: baculovirus expression system
Sequence (Q9BY41 whole entry): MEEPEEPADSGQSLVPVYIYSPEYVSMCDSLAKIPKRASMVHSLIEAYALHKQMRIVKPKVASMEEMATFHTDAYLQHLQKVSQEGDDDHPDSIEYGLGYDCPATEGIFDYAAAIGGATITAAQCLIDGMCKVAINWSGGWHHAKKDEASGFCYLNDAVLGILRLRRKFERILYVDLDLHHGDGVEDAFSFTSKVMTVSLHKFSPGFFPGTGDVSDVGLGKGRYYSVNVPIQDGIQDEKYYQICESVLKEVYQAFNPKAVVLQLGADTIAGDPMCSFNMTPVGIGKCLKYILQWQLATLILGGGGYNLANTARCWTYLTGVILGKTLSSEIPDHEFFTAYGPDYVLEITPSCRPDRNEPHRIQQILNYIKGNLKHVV
EXPERIMENTAL DETAILS: Caliper endpoint assay for HDAC enzymatic activity (HDAC8)
Type: biochemical
REPORTED CONDITIONS: in vitro enzymatic, 30 min pre-incubation, 1 μM substrate peptide
pIC50: −log10 of the molar value.
MEASURED METRIC: pIC50

>>> result("O=C(NO)c1cc(F)c2c(c1)CCN(C[C@@H]1CCC3(CCCCC3)C1)C2 (single isomer, unassigned)")
"4.00 to 5.00"
>>> result("CN1CC2(CC(N3CCc4cc(C(=O)NO)cc(F)c4C3)C2)C1")
"5.00 to 6.00"
>>> result("CC(=O)N1CC[C@H](N2CCc3cc(C(=O)NO)cc(F)c3C2)CC12CCC2 (single isomer, unassigned)")
"5.00 to 6.00"
>>> result("O=C(NO)c1cc(F)c2c(c1)CCN(CC13CC(C1)N(C1CC1)C3)C2")
"4.00 to 5.00"
>>> result("CC[C@@H]1Cc2c(F)cc(C(=O)NO)cc2CN1C[C@H]1CCCCO1 (single isomer, unassigned)")
"5.00 to 6.00"
>>> result("CC[C@H](c1ccc(C(=O)NO)cc1F)N1CCC2(CCCCC2)C1 (single isomer, unassigned)")
"5.00 to 6.00"
>>> result("O=C(NO)c1cc(F)c2c(c1)CCN(C1CCC3(COC3)C1)C2 (stereo not drawn)")
"4.00 to 5.00"
>>> result("O=C(NO)c1cc(F)c2c(c1)CCN(C1CC3(CCCO3)C1)C2 (single isomer, unassigned) [Compound 191]")
"4.00 to 5.00"
>>> result("O=C(NO)c1ccc(CN2C[C@H]3CC[C@@H]2CO3)c(F)c1")
"5.00 to 6.00"
>>> result("O=C(NO)c1cc(F)c2c(c1)C[C@@H]1CCCN1C2 (single isomer, unassigned)")
"4.00 to 5.00"
>>> result("O=C(NO)c1cc(F)c2c(c1)CCN([C@@H]1CCN(C3CC3)C3(CCC3)C1)C2 (single isomer, unassigned)")
"5.00 to 6.00"
>>> result("O=C(NO)c1ccc2c(c1)CCN1CCC[C@@H]21")
"5.00 to 6.00"

###

TARGET SYSTEM: Full length Human HDAC6 (Homo sapiens)
Construct: Full length Human HDAC6; FLAG (C); host or cells: baculovirus expression system
Sequence (Q9UBN7 1-1215): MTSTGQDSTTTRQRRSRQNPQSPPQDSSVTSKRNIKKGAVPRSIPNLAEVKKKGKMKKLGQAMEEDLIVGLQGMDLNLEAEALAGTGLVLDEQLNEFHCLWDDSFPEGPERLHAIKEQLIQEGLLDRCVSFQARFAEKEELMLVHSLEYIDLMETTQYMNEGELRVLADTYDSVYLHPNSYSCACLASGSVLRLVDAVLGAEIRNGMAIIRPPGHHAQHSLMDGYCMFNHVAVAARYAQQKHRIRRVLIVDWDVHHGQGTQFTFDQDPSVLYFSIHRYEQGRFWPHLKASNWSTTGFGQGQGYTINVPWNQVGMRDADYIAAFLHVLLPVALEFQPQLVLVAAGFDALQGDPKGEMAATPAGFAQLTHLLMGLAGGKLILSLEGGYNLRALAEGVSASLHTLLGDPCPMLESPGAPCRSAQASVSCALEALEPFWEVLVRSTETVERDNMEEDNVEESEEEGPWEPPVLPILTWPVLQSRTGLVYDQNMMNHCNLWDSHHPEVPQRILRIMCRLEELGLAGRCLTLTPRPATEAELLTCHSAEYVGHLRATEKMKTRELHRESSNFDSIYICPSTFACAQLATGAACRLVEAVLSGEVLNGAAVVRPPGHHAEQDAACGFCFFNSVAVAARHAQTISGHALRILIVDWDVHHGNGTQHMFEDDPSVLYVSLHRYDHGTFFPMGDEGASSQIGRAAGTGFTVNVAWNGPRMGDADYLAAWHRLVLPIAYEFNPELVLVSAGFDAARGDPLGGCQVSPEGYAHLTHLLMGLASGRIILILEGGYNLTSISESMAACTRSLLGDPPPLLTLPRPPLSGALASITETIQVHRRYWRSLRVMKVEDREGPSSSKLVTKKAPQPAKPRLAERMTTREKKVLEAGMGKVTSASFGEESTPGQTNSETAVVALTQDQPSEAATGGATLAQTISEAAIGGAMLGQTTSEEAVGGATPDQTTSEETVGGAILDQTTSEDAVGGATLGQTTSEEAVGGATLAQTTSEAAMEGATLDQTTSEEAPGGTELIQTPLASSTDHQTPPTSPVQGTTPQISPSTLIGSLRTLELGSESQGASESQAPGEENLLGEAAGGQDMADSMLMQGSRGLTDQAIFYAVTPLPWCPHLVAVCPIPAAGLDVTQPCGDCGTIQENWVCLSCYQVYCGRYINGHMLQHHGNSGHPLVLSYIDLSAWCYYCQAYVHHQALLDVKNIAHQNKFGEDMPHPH
EXPERIMENTAL DETAILS: Caliper endpoint assay for HDAC enzymatic activity (HDAC6)
Assay type: biochemical
REPORTED CONDITIONS: ratio of HDAC8 IC50/HDAC6 IC50
MEASURED METRIC: Selectivity (6 v 8)

>>> result("CN1CCC[C@@]2(CC[C@H]2N2CCc3cc(C(=O)NO)cc(F)c3C2)C1 (single isomer, unassigned)")
"III (III: >10-100)"
>>> result("O=C(NO)c1cc(F)c2c(c1)CCN(C1CCC3(CCNCC3)C1)C2 (stereo not shown)")
"IV (IV: >100-1000)"
>>> result("CC(=O)N1CC2(CC(N3CCc4cc(C(=O)NO)cc(F)c4C3)C2)C1")
"IV (IV: >100-1000)"
>>> result("O=C(NO)c1cc(F)c2c(c1)CCN(C1CC[C@]13CCCO3)C2 (single isomer, unassigned)")
"IV (IV: >100-1000)"
>>> result("CC[C@@H]1Cc2c(F)cc(C(=O)NO)cc2CN1CC1CC2CCC(C1)N2C (single isomer, unassigned)")
"III (III: >10-100)"

###

TARGET SYSTEM: Full length Human HDAC6 (Homo sapiens)
Construct: Full length Human HDAC6; FLAG (C); host or cells: baculovirus expression system
EXPERIMENTAL DETAILS: Caliper endpoint assay for HDAC enzymatic activity (HDAC6)
Type: biochemical
REPORTED CONDITIONS: ratio of HDAC8 IC50/HDAC6 IC50
MEASURED METRIC: Selectivity (6 v 8)

>>> result("CC(=O)N1CCC2(CC1)CC(CN1CCc3cc(C(=O)NO)cc(F)c3C1)C2 [Compound 471]")
"IV (IV: >100-1000)"
>>> result("O=C(NO)c1cc(F)c2c(c1)CCN([C@H]1CCC3(CCCC3)C1)C2 (single isomer, unassigned) [Compound 185]")
"IV (IV: >100-1000)"
>>> result("O=C(NO)c1cc(F)c2c(c1)CCN(C[C@@]13CN[C@@H](CO1)C3)C2 [Compound 472]")
"IV (IV: >100-1000)"
>>> result("O=C(NO)c1cc(F)c2c(c1)CCN([C@H]1C[C@@]3(CCCNC3)C1)C2 (single isomer, unassigned) [Compound 342]")
"IV (IV: >100-1000)"
>>> result("CC[C@@H]1Cc2c(F)cc(C(=O)NO)cc2CN1C1CCC1 (single isomer, unassigned) [Compound 596]")
"IV (IV: >100-1000)"
>>> result("O=C(NO)c1ccc2c(c1)CN1CCCC[C@@H]1C2 [Compound 143]")
"III (III: >10-100)"
>>> result("CN1CC[C@@]2(CC[C@@H]2N2CCc3cc(C(=O)NO)cc(F)c3C2)C1 (single isomer, unassigned) [Compound 329]")
"III (III: >10-100)"
>>> result("O=C(NO)c1cc(F)c2c(c1)CCN(C1CCC3(C1)CN(C1CC1)C3)C2 (stereo not drawn) [Compound 390]")
"III (III: >10-100)"
>>> result("O=C(NO)c1ccc(CN2CCC3(CCCCC3)C2)c(F)c1 [Compound 75]")
"III (III: >10-100)"
>>> result("O=C(NO)c1ccc2c(c1)CN1CCCC[C@H]1C2 [Compound 144]")
"III (III: >10-100)"

###

TARGET SYSTEM: Full length Human HDAC6 (Homo sapiens, UniProt Q9UBN7)
Construct: Full length Human HDAC6; FLAG (C); host or cells: baculovirus expression system
EXPERIMENTAL DETAILS: Caliper endpoint assay for HDAC enzymatic activity (HDAC6)
Type: biochemical
REPORTED CONDITIONS: ratio of HDAC8 IC50/HDAC6 IC50
MEASURED METRIC: Selectivity (6 v 8)

>>> result("CN1CCC2(CCC(N3CCc4cc(C(=O)NO)cc(F)c4C3)C2)CC1 (stereo not shown)")
"IV (IV: >100-1000)"
>>> result("O=C(NO)c1cc(F)c2c(c1)CCN(C1CC3(CCOC3)C1)C2 (single isomer, unassigned) [Compound 188]")
"IV (IV: >100-1000)"
>>> result("CC[C@@H]1Cc2c(F)cc(C(=O)NO)cc2CN1CC1C2CC1CN(C)C2 (single isomer, unassigned)")
"III (III: >10-100)"
>>> result("CC[C@@H]1Cc2c(F)cc(C(=O)NO)cc2CN1CC12CC(NC)(C1)C2 (single isomer, unassigned)")
"III (III: >10-100)"
>>> result("O=C(NO)c1cc(F)c2c(c1)CN1CCCC[C@H]1C2")
"III (III: >10-100)"
>>> result("CC[C@@H]1Cc2c(F)cc(C(=O)NO)cc2CN1CC1CCCCC1 (single isomer, unassigned)")
"III (III: >10-100)"
>>> result("O=C(NO)c1cc(F)c2c(c1)CCN(C1CCC3(CCC3)CC1)C2")
"V (V: >1000)"
>>> result("CC(=O)N1CC2(CCC(N3CCc4cc(C(=O)NO)cc(F)c4C3)C2)C1 (stereo not shown)")
"IV (IV: >100-1000)"
>>> result("O=C(NO)c1cc(F)c2c(c1)CCN([C@H]1CCOC3(CCC3)C1)C2 (single isomer, unassigned)")
"IV (IV: >100-1000)"
>>> result("O=C(NO)c1cc(F)c2c(c1)CN1CCCC[C@@H]1C2")
"IV (IV: >100-1000)"
>>> result("CC[C@H]1Cc2c(F)cc(C(=O)NO)cc2CN1C1CC2(CCN(C3CC3)CC2)C1 (single isomer, unassigned)")
"IV (IV: >100-1000)"
>>> result("O=C(NO)c1cc(F)c2c(c1)CCN([C@@H]1CCC3(CCCC3)C1)C2 (single isomer, unassigned)")
"IV (IV: >100-1000)"
>>> result("O=C(NO)c1cc(F)c2c(c1)CCN(CC13CC4CC(CC(C4)N1)C3)C2")
"V (V: >1000)"
>>> result("Cc1cc2c(cc1C(=O)NO)CCN(C1CC3(CCCCC3)C1)C2")
"V (V: >1000)"
>>> result("O=C(NO)c1cc(F)c2c(c1)CCN(C1CC3(CCCO3)C1)C2 (single isomer, unassigned) [Compound 191]")
"IV (IV: >100-1000)"
>>> result("O=C(NO)c1cc(F)c2c(c1)CCN([C@@H]1CC[C@@]13CCOC3)C2 (single isomer, unassigned)")
"IV (IV: >100-1000)"
>>> result("O=C(NO)c1cc(F)c2c(c1)CCN([C@H]1C[C@]3(CCCN(C4CC4)C3)C1)C2 (single isomer, unassigned)")
"IV (IV: >100-1000)"
>>> result("O=C(NO)c1cc(F)c2c(c1)CCN(C1CCC3(CNC3)C1)C2 (stereo not shown)")
"IV (IV: >100-1000)"
>>> result("CC[C@@H]1Cc2c(F)cc(C(=O)NO)cc2CN1C[C@H]1C[C@H]2CC[C@@H](C1)N2C (single isomer, unassigned)")
"III (III: >10-100)"
>>> result("O=C(NO)c1cc(F)c2c(c1)CCN(C[C@@H]1CCCCO1)C2 (single isomer, unassigned)")
"IV (IV: >100-1000)"
>>> result("O=C(NO)c1cc(F)c2c(c1)CCN(C1CCC3(COC3)C1)C2 (stereo not shown)")
"IV (IV: >100-1000)"
>>> result("CN1CC[C@@H](N2CCc3cc(C(=O)NO)cc(F)c3C2)CC12CCC2 (single isomer, unassigned)")
"IV (IV: >100-1000)"
>>> result("CN1CCC[C@]2(CC[C@H]2N2CCc3cc(C(=O)NO)cc(F)c3C2)C1 (single isomer, unassigned)")
"IV (IV: >100-1000)"
>>> result("O=C(NO)c1cc(F)c2c(c1)CCN(C1CC3(CNC3)C1)C2")
"IV (IV: >100-1000)"
